Please provide measured RP-LC retention time for the entries that follow.
experiment: gradient 5% acetonitrile 3 min, to 50% in 2 min, to 85% in 15 min, held 3 min, 100 µL/min; conditions: column: Zorbax Extend-C18 2.1 x 50 mm; eluents: water / acetonitrile, 0.1% formic acid
# value in s; strip the unit string

Incoming: Suppose we examine the compound `CCOc1ccc(-n2c(=O)c3sccc3n(Cc3nc(-c4ccccc4Cl)no3)c2=O)cc1` ; what RP-LC retention time value has been reported?
Outgoing: 1020

Incoming: Cool, now Cc1ccc(-c2nc(CN3CCCC(C(=O)NC4CCCCNC4=O)C3)no2)cc1 (centres undefined)
Outgoing: 638

Incoming: Cool, now `COc1cccc(Cn2nc3ccc(S(=O)(=O)N4CCCC4)cn3c2=O)c1`
Outgoing: 814

Incoming: Cool, now `COc1ccc(-c2ccc(=O)n(Cc3nc(-c4ccc(F)cc4)no3)n2)cc1`
Outgoing: 995

Incoming: Cool, now `COc1cc(CN2CC(Oc3ccc(-c4noc(-c5ccncc5)n4)cc3)C2)cc(OC)c1`
Outgoing: 728

Incoming: Cool, now CC(C)c1nnc(C2CN(C)CC23CCN(Cc2cccc(C(F)(F)F)c2)CC3)o1 (centres undefined)
Outgoing: 578

Incoming: Cool, now `NC(=O)C1CCN(C(=O)c2nnn(-c3ccc(Cl)cc3)c2-c2cccnc2)CC1`
Outgoing: 633

Incoming: Cool, now Cc1noc2ncnc(N3CCCC(C(=O)N4CCCc5ccccc54)C3)c12 (centres undefined)
Outgoing: 878

Incoming: Cool, now `CCn1c(=O)c(N2CCN(C(=O)c3cccs3)CC2)nc2cccnc21`
Outgoing: 900

Incoming: Cool, now `O=C(COc1ccc([N+](=O)[O-])cc1Cl)N1CCOCC1`
Outgoing: 846

Incoming: Cool, now `CCOC(=O)Cc1sc(Nc2c(C)n[nH]c2C)nc1-c1ccccc1`
Outgoing: 688

Incoming: Cool, now `C[C@H]1CN(C(=O)c2ccc(C#N)cc2)C[C@@H]1c1nc(-c2ccncc2)no1`
Outgoing: 717

Incoming: Cool, now `O=C(Cc1ccc(Br)cc1)N1CCN(c2cc(-c3ccccc3)[nH]n2)CC1`
Outgoing: 873

Incoming: Cool, now `Cc1ccc2[nH]c(=O)c(CCC(=O)N3CCCN(c4ncccn4)CC3)cc2c1`
Outgoing: 654

Incoming: Cool, now CC1CCCN(C(=O)C2CCN(c3cc(N4CCCCC4)ncn3)CC2)C1 (centres undefined)
Outgoing: 683

Incoming: Cool, now COc1ccccc1C(=O)N1CCC(n2cnnc2-c2ccccc2)C1 (centres undefined)
Outgoing: 643

Incoming: Cool, now `Cc1noc(C)c1CN1CCN(C(=O)CSc2ccc(F)cc2)CC1`
Outgoing: 570

Incoming: Cool, now `Cc1cccc(CN2CCCn3nc(C(=O)NCCCOC(C)C)cc3C2=O)c1`
Outgoing: 842

Incoming: Cool, now CC(CCc1ccccc1)NC(=O)C1CCN(S(=O)(=O)c2ccc3c(c2)CCCC(=O)N3)CC1 (centres undefined)
Outgoing: 809

====

assay: gradient 5% acetonitrile 3 min, to 50% in 2 min, to 85% in 15 min, held 3 min, 100 µL/min; conditions: column: Zorbax Extend-C18 2.1 x 50 mm; eluents: water / acetonitrile, 0.1% formic acid
The class of a record is decided solely by its measured RP-LC retention time; consult bottom (below 700 s), middle (700 s to below 900 s), top (900 s or more)

Incoming: Category of `O=C(Cn1nc(Cc2ccncc2)c2ccccc2c1=O)NCCCN1CCc2ccccc2C1` :
Outgoing: bottom

Incoming: Cool, now `NC(=O)C1CCN(C(=O)CSc2nnc(-c3sc4ncccc4c3N)n2C2CC2)CC1`
Outgoing: bottom

Incoming: Cool, now COc1ccc(NC(=O)N2CCC3(C2)C(=O)N(C)c2ccccc23)c(OC)c1 (centres undefined)
Outgoing: middle

Incoming: Cool, now CC(C(=O)NCc1nn(C)c2ccccc12)c1ccccc1 (centres undefined)
Outgoing: middle

Incoming: Cool, now `O=C(c1ccc(Cl)s1)N1CCc2nc(-c3ccc(F)cc3)ncc2C1`
Outgoing: top

====

Please provide measured RP-LC retention time for the entries that follow.
assay: gradient 5% acetonitrile 3 min, to 50% in 2 min, to 85% in 15 min, held 3 min, 100 µL/min; settings: column: Zorbax Extend-C18 2.1 x 50 mm; eluents: water / acetonitrile, 0.1% formic acid
# value in s; strip the unit string

Incoming: Suppose we examine the compound COc1ccc(C(=O)NC2CCN(c3cc(-c4ccc(Cl)cc4)[nH]n3)C2)cn1 (stereo not given) ; what RP-LC retention time value has been reported?
Outgoing: 732

Incoming: Cool, now O=C(CC1Sc2ccc(C(F)(F)F)cc2NC1=O)Nc1cccc(Cl)c1Cl (stereo not given)
Outgoing: 993

Incoming: Cool, now `Cc1nn(-c2ccccc2)c(C)c1S(=O)(=O)N1CCC(C(=O)Nc2ccc(Cl)cc2)CC1`
Outgoing: 726

Incoming: Cool, now `Cc1nnc(-c2nnc(NCC(C)C)c3ccccc23)o1`
Outgoing: 652

Incoming: Cool, now `CN(C)CCNC(=O)c1csc(-c2ccc(N3CCCC3)nc2)n1`
Outgoing: 548

Incoming: Cool, now CN(C1CCc2nn(CC3CC3)c(=O)n2CC1)S(=O)(=O)c1ccccc1F (stereo not given)
Outgoing: 706

Incoming: Cool, now `COCCc1nnc(NC(=O)c2ccc3c(c2)CCCC3)o1`
Outgoing: 702

Incoming: Cool, now `COC(=O)c1ccc(NC(=O)c2cc(C(C)(C)C)n3nccc3n2)cc1`
Outgoing: 865

Incoming: Cool, now `O=C(NC1CCN(c2cc(-c3cccs3)[nH]n2)CC1)c1ccc(Cl)cc1`
Outgoing: 749

Incoming: Cool, now CCCN1C(=O)C(CC(=O)NCCN(C)C)Sc2ncccc21 (stereo not given)
Outgoing: 588

====

experiment: gradient 5% acetonitrile 3 min, to 50% in 2 min, to 85% in 15 min, held 3 min, 100 µL/min; conditions: column: Zorbax Extend-C18 2.1 x 50 mm; eluents: water / acetonitrile, 0.1% formic acid
Please provide measured RP-LC retention time for the entries that follow.
# value in s; strip the unit string

Incoming: Suppose we examine the compound `CC(=O)N1CCc2sc(S(=O)(=O)N3CCN(c4ccccc4)CC3)cc2C1` ; what RP-LC retention time value has been reported?
Outgoing: 884

Incoming: Cool, now `CSc1ccc(-c2nc3cccc(C)n3c2Nc2ccc(C)cc2)cc1`
Outgoing: 824

Incoming: Cool, now CCOC(=O)C1CCc2sc(NC(=O)CNC(=O)c3ccc(=O)[nH]c3)nc21 (stereo not given)
Outgoing: 591

Incoming: Cool, now `Cc1nc(CC(=O)Nc2ccc(F)cc2Cl)sc1C(=O)NC1CC1`
Outgoing: 740

Incoming: Cool, now `O=C(CN1C(=O)c2ccccc2C1=O)OCc1nc2ccccc2s1`
Outgoing: 840

Incoming: Cool, now O=C(Nc1ccc(Cl)cc1)C1CCCN(c2ncnc3c2nc2n3CCCCC2)C1 (stereo not given)
Outgoing: 877

Incoming: Cool, now `Cc1ccc(-c2cc(C(=O)N3CCC(NC(=O)c4ccc5c(c4)OCO5)CC3)[nH]n2)c(C)c1`
Outgoing: 787

Incoming: Cool, now `O=C(Nc1ccc(Br)cc1F)c1cc(-c2cccnc2)n[nH]1`
Outgoing: 733

Incoming: Cool, now `O=C(COc1ccc(Cl)cc1)NCC#CCN1CCCC1`
Outgoing: 544

Incoming: Cool, now `CC(=O)NCc1ccc(-c2noc(-c3ccc(N(C)C)cc3)n2)s1`
Outgoing: 861

Incoming: Cool, now `Cc1cnc(C2CC2)n1CCNS(=O)(=O)Cc1ccccc1F`
Outgoing: 619

Incoming: Cool, now `Cc1cccc(N2C(=O)CN(Cc3ccccc3C)[C@H]3CS(=O)(=O)C[C@H]32)c1`
Outgoing: 872

Incoming: Cool, now `COc1ccc(-c2ncc3c(n2)CCN(C(=O)Nc2cc(Cl)ccc2C)C3)cc1`
Outgoing: 984

Incoming: Cool, now `O=C(Nc1ccc(N2CCN(C3CCCCC3)C2=O)nc1)c1ccccc1F`
Outgoing: 850

Incoming: Cool, now `Cc1ccc(-c2noc(-c3nnc(NCCCN4CCOCC4)c4ccccc34)n2)cc1`
Outgoing: 735

Incoming: Cool, now `CNC(=O)N1CCc2ccc(C(=O)NC(C)(C)C)cc21`
Outgoing: 661

Incoming: Cool, now CCC(=O)Nc1ccc(S(=O)(=O)NC2CCN(c3ccc(=O)n(CC4CC4)n3)C2)cc1 (stereo not given)
Outgoing: 712

Incoming: Cool, now `O=C([C@@H]1C[C@H](F)CN1C(=O)Nc1ccc(C(F)(F)F)cc1)N1CCc2ccccc2C1`
Outgoing: 857

Incoming: Cool, now COc1cccc(CNC(=O)C2CCCN(C(=O)c3[nH]c(C)c(C(=O)OC(C)C)c3C)C2)c1 (stereo not given)
Outgoing: 845

Incoming: Cool, now Cn1c(C2CCN(C(=O)c3ccc(Cl)cc3)C2)nc2ccncc21 (stereo not given)
Outgoing: 540

====

assay: gradient 5% acetonitrile 3 min, to 50% in 2 min, to 85% in 15 min, held 3 min, 100 µL/min; conditions: column: Zorbax Extend-C18 2.1 x 50 mm; eluents: water / acetonitrile, 0.1% formic acid
PROPERTY NAME: RP-LC retention time (s)
# value in s; strip the unit string

Incoming: Suppose we examine the compound Cc1nc2cccnc2n1CC1CCCN(C(=O)Nc2ccc3c(c2)OCCO3)C1 (stereo not given) ; what RP-LC retention time value has been reported?
Outgoing: 614

Incoming: Cool, now `COC(=O)C1=CN(c2ccc(C)c(C)c2)c2ccccc2S1(=O)=O`
Outgoing: 941

Incoming: Cool, now Cc1cccc(C)c1OCC(=O)N(Cc1ccc(Br)o1)C1CCS(=O)(=O)C1 (stereo not given)
Outgoing: 960

Incoming: Cool, now `Cc1nc2c(c(C)nn2C(C)(C)C)c(C)c1CCC(=O)N1CCN(c2ccccn2)CC1`
Outgoing: 731

Incoming: Cool, now `COc1ccc(-c2c(C(=O)Nc3ccc4c(c3)OCCO4)nc3ccccn23)cc1`
Outgoing: 919

Incoming: Cool, now `CNC(=O)c1cccc(Nc2c(-c3ccc(SC)cc3)nc3cnccn23)c1`
Outgoing: 692

Incoming: Cool, now `Cc1c(C(=O)C(=O)Nc2ccccc2C(N)=O)c2ccccc2n1C`
Outgoing: 796

Incoming: Cool, now `COc1cc(OC)cc(-c2nc(-c3cn(Cc4cccc(F)c4)nn3)no2)c1`
Outgoing: 1030

Incoming: Cool, now Cc1ccc2c(c1)N(S(C)(=O)=O)CCC(C(=O)NCCC1=CCCCC1)O2 (stereo not given)
Outgoing: 993

Incoming: Cool, now `O=C(Cc1ccccc1)Nc1nnc(CCSCCc2nnc(NC(=O)Cc3ccccc3)s2)s1`
Outgoing: 933

Incoming: Cool, now `COc1ccc(Cl)cc1NC(=O)Cn1cccc1-c1nnc(C2CC2)o1`
Outgoing: 972

Incoming: Cool, now Cn1c(CNC(=O)C2CCc3sc(C(=O)N4CCCC4)cc3C2)nc2ccccc21 (stereo not given)
Outgoing: 602

Incoming: Cool, now `CCc1cc(C(=O)Nc2ccccc2)nc2ccnn12`
Outgoing: 960

Incoming: Cool, now CCC1CCCCN1CCNC(=O)CCc1cc2cc(OC)ccc2[nH]c1=O (stereo not given)
Outgoing: 593

Incoming: Cool, now `CCOC(=O)c1ccc(NS(=O)(=O)c2cc3n(c2)CCCNC3=O)cc1`
Outgoing: 1010

Incoming: Cool, now `COC(=O)c1cnc(N2CCN(c3ccc(OC)cc3)CC2)c2ccccc12`
Outgoing: 980

Incoming: Cool, now `O=c1c2sccc2n(Cc2nc(-c3cccc(Br)c3)no2)c(=O)n1-c1ccc(F)cc1`
Outgoing: 1080

Incoming: Cool, now `Cc1nn(C)cc1S(=O)(=O)NCCc1c[nH]c2ccccc12`
Outgoing: 683

Incoming: Cool, now `Cc1noc(-c2cc(=O)n(CC(=O)Nc3cccc(C(C)C)c3)c3ccccc23)n1`
Outgoing: 996

Incoming: Cool, now CCc1onc(C)c1C1CCCN1C(=O)Nc1cccc(C)c1 (stereo not given)
Outgoing: 842
